# System: WHIM30 (cells of a triple-negative basal-like breast cancer xenograft)
# PROTOCOL SUMMARY: cell viability (% of vehicle); higher = less cytotoxic
# CONDITION DETAILS: 10 µM; 72 h
Structures can show the parent of a compound that is named as a salt.
ENDPOINT LABEL: cell viability
Give the value as a plain number.

MOLECULE	ENDPOINT LABEL	TEST VALUE
Cc1nc(NC(=O)N2CCCC2C(N)=O)sc1-c1ccnc(C(C)(C)C(F)(F)F)c1 (stereo not drawn)	cell viability	65.9
COc1nc2ccc(Br)cc2cc1[C@@H](c1ccccc1)[C@@](O)(CCN(C)C)c1cccc2ccccc12 [Bedaquiline fumarate]	cell viability	70
CN(C(=O)CN(CCO)CC(=O)N(C)C(C)(C)Cc1ccccc1)C(C)(C)Cc1ccccc1	cell viability	96.4
O=C(NC(Cc1cc(=O)[nH]c2ccccc12)C(=O)O)c1ccc(Cl)cc1 (stereo not drawn) [Rebamipide]	cell viability	115
CN(C)CCCN1c2ccccc2CCc2ccccc21.Cl [Imipramine (hydrochloride)]	cell viability	79.7
COc1cc2nccc(Oc3ccc(NC(=O)C4(C(=O)Nc5ccc(F)cc5)CC4)cc3)c2cc1OC	cell viability	116
COc1ncc(-c2ccc3nccc(-c4ccnnc4)c3c2)cc1NS(=O)(=O)c1ccc(F)cc1F	cell viability	42.9
CC1(C(=O)[O-])CCC2(C)CCC3(C)C(=CC(=O)C4C5(C)CCC(OC(=O)CCC(=O)[O-])C(C)(C)C5CCC43C)C2C1.[Na+].[Na+] (stereo not drawn) [Carbenoxolone disodium]	cell viability	97.9

Task: Which cell viability is reported for this molecule? CC1CCN(C(=O)CC#N)CC1N(C)c1ncnc2[nH]ccc12 (stereo not drawn)
Result: 160

Task: Which cell viability is reported for this molecule? "N[C@@H](CCC(=O)N[C@@H](CS)C(=O)NCC(=O)O)C(=O)O"
Result: 131

Task: Which cell viability is reported for this molecule? "CC(=O)N[C@H](Cc1ccc2ccccc2c1)C(=O)N[C@H](Cc1ccc(Cl)cc1)C(=O)N[C@H](Cc1cccnc1)C(=O)N[C@@H](CO)C(=O)N[C@@H](Cc1ccc(O)cc1)C(=O)N[C@H](CCCNC(N)=O)C(=O)N[C@@H](CC(C)C)C(=O)N[C@@H](CCCNC(=N)N)C(=O)N1CCC[C@H]1C(=O)N[C@H](C)C(N)=O"
Result: 132

Task: Which cell viability is reported for this molecule? COc1cc(Nc2ncc(F)c(Nc3ccc4c(n3)N(COP(=O)([O-])[O-])C(=O)C(C)(C)O4)n2)cc(OC)c1OC.[Na+].[Na+] [R788 disodium]
Result: 91.9

Task: Which cell viability is reported for this molecule? CC(NCCc1ccc(O)cc1)C(O)c1ccc(O)cc1.Cl (stereo not drawn) [Ritodrine HCl]
Result: 111

Task: Which cell viability is reported for this molecule? CCC(CC)C(NC(C)=O)C1C(N=C(N)N)CC(C(=O)O)C1O (stereo not drawn)
Result: 136

Task: Which cell viability is reported for this molecule? "CS(=O)(=O)OCCCCOS(C)(=O)=O"
Result: 143

Task: Which cell viability is reported for this molecule? "Cc1cnc(NC(=O)C2=C(O)c3ccccc3S(=O)(=O)N2C)s1"
Result: 81.3

Task: Which cell viability is reported for this molecule? C=CC1=C(C(=O)O)N2C(=O)C(NC(=O)C(=NO)c3csc(N)n3)C2SC1 (stereo not drawn)
Result: 114

Task: Which cell viability is reported for this molecule? CCC1OC(=O)C(C)C(OC2CC(C)(OC)C(O)C(C)O2)C(C)C(OC2OC(C)CC(N(C)C)C2O)C(C)(O)CC(C)C2NC(COCCOC)OC(C2C)C1(C)O (stereo not drawn)
Result: 92.4

---

# System: WHIM30
# PROTOCOL SUMMARY: cell viability (% of vehicle); higher = less cytotoxic
# CONDITION DETAILS: 1 µM; 72 h
Reported cell viability values for the following compounds.
Give the value as a plain number.

Solved cases below.
COMPOUND	cell viability
CC(C)Nc1cc(-c2c[nH]c(C(=O)NC(CO)c3cccc(Cl)c3)c2)c(Cl)cn1 (stereo not drawn)	78.4
Cc1c(C(=O)NN2CCCCC2)nn(-c2ccc(Cl)cc2Cl)c1-c1ccc(Cl)cc1	82.6
CC1=CC(=O)c2ccccc2C1=O	98.2
C=C1C(=CC=C2CCCC3(C)C2CCC3C(C)CCCC(C)(C)O)CC(O)CC1O (stereo not drawn)	92.9
CC(C)C(=O)OCC(=O)[C@@]12O[C@H](C3CCCCC3)O[C@@H]1C[C@H]1[C@@H]3CCC4=CC(=O)C=C[C@]4(C)[C@H]3[C@@H](O)C[C@@]12C [Ciclesonide]	145
CNC(=O)c1cc(Oc2ccc(NC(=O)Nc3ccc(Cl)c(C(F)(F)F)c3)cc2)ccn1.Cc1ccc(S(=O)(=O)O)cc1 [Sorafenib Tosylate]	65.2
C=C1C(=CC=C2CCCC3(C)C2CCC3C(C)CCCC(C)C)CC(O)CC1O (stereo not drawn)	91.3

Field: next compound
Task: Which cell viability is reported for this compound? CC(NCCCc1cccc(C(F)(F)F)c1)c1cccc2ccccc12 (stereo not drawn)
Result: 83.9

---

# Tested on: HCI09 (cells of a triple-negative luminal androgen receptor type breast cancer xenograft)
# PROTOCOL SUMMARY: cell viability (% of vehicle); higher = less cytotoxic
# CONDITION DETAILS: 10 µM; 72 h
Reported cell viability values for the following molecules.
Give the value as a plain number.

Solved cases below.
MOLECULE	cell viability
NCCCCCC(=O)O [(6-)ε-Aminocaproic acid]	90
C=CCNC(N)=S [Allylthiourea]	94.1
C[N+](C)(CCOc1ccccc1)Cc1ccccc1.O=C(O)c1cc2ccccc2cc1[O-] [Bephenium Hydroxynaphthoate]	128
CC1(C)SC2C(NC(=O)Cc3ccccc3)C(=O)N2C1C(=O)[O-].[Na+] (stereo not given) [Penicillin G Sodium]	91.8

Task: What cell viability appears in the records for this molecule with HCI09? O=C1NC([O-])=NC1(c1ccccc1)c1ccccc1.[Na+] [Phenytoin sodium]
Result: 96.6

---

# Test system: HCI03 (cells of an ER-positive luminal breast cancer xenograft)
# PROTOCOL SUMMARY: cell viability (% of vehicle); higher = less cytotoxic
# CONDITION DETAILS: 10 µM; 72 h
ENDPOINT LABEL: cell viability

COMPOUND	cell viability
Nc1ccccc1NC(=O)c1ccc(CNc2nccc(-c3cccnc3)n2)cc1	87

Task: What cell viability appears in the records for this compound with HCI03? "Cc1[nH]c2ccccc2c1CCNCc1ccc(C=CC(=O)NO)cc1"
Result: 130

Task: What cell viability appears in the records for this compound with HCI03? CNC(C)C1CCC(N)C(OC2C(N)CC(N)C(OC3OCC(C)(O)C(NC)C3O)C2O)O1.O=S(=O)(O)O (configuration not stated) [Gentamycin Sulfate]
Result: 90.7

Task: What cell viability appears in the records for this compound with HCI03? C=C[C@]1(C)C[C@@H](OC(=O)CSC2C[C@H]3CC[C@@H](C2)N3C)[C@]2(C)[C@H](C)CC[C@]3(CCC(=O)[C@H]32)[C@@H](C)[C@@H]1O (some centres not stated)
Result: 113

Task: What cell viability appears in the records for this compound with HCI03? CC(=O)Nc1ncc([N+](=O)[O-])s1 [Nithiamide]
Result: 159

Task: What cell viability appears in the records for this compound with HCI03? CCN(CC)C(=O)C1(c2ccccc2)CC1CN.Cl (configuration not stated) [Milnacipran HCl]
Result: 137

Task: What cell viability appears in the records for this compound with HCI03? "Cc1cc2c(cc1S(N)(=O)=O)S(=O)(=O)CCC2"
Result: 117

---

Reported cell viability values for the following molecules.
# System: HCI13 (cells of an ER-positive luminal breast cancer xenograft)
# PROTOCOL SUMMARY: cell viability (% of vehicle); higher = less cytotoxic
# CONDITION DETAILS: 10 µM; 72 h
Counter-ions that a name gives are not always drawn.
Give the value as a plain number.

Solved cases below.
MOLECULE	cell viability
COc1ccc(C=Cc2cc(OC)c(OC)c(OC)c2)cc1OP(=O)([O-])[O-].[Na+].[Na+] [Fosbretabulin (Combretastatin A4 Phosphate (CA4P)) Disodium]	41.7
CCN(CC)CCOC(=O)c1ccc(N)cc1	96.8
CN1C(C(=O)Nc2ccccn2)=C(O)c2sccc2S1(=O)=O	64.9
CCc1c(Cl)c(O)c(Cl)c(O)c1C(=O)OC1C(C)OC(OCC2=CC=CCC(O)C(C)=CC(CC)C(OC3OC(C)(C)C(OC(=O)C(C)C)C(O)C3O)C(C)=CC(C)=CCC(C(C)O)OC2=O)C(OC)C1O (configuration not stated)	46.3
COc1ccc(-c2ccc3cc(C(=O)O)ccc3c2)cc1C12CC3CC(CC(C3)C1)C2 [Adapalene sodium salt]	183

Task: Which cell viability is reported for this molecule? "CC(=O)OCC(CCn1cnc2cnc(N)nc21)COC(C)=O"
Result: 123

Task: Which cell viability is reported for this molecule? "Cc1[nH]c(=O)c(C#N)cc1-c1ccncc1"
Result: 98

---

# Test system: HCI03
# PROTOCOL SUMMARY: cell viability (% of vehicle); higher = less cytotoxic
# CONDITION DETAILS: 10 µM; 72 h
Reported cell viability values for the following compounds.
Give the value as a plain number.

COMPOUND	ENDPOINT LABEL	TEST VALUE
CC(C)c1nc(N(C)S(C)(=O)=O)nc(-c2ccc(F)cc2)c1C=CC(O)CC(O)CC(=O)[O-].CC(C)c1nc(N(C)S(C)(=O)=O)nc(-c2ccc(F)cc2)c1C=CC(O)CC(O)CC(=O)[O-].[Ca+2] (centres undefined)	cell viability	115
Cc1cc2c(s1)=Nc1ccccc1NC=2N1CCN(C)CC1	cell viability	107
CCOC(=O)c1c(CSc2ccccc2)n(C)c2cc(Br)c(O)c(CN(C)C)c12.Cl [Arbidol HCl]	cell viability	87.3
O=C([O-])c1ccccc1O.[Na+] [Sodium salicylate]	cell viability	121
Cc1cn(-c2cc(NC(=O)c3ccc(C)c(Nc4nccc(-c5cccnc5)n4)c3)cc(C(F)(F)F)c2)cn1	cell viability	79.8

Task: Which cell viability is reported for this compound? "O=C(O)c1cc(=O)[nH]c(=O)[nH]1"
Result: 100

Task: Which cell viability is reported for this compound? COC(=O)C1CC2=CC(=O)CCC2(C)C23OC2CC2(C)C(CC[C@]24CCC(=O)O4)C13 (some centres undefined)
Result: 105

Task: Which cell viability is reported for this compound? CC[N+](CC)(CC)CCOc1cccc(OCC[N+](CC)(CC)CC)c1OCC[N+](CC)(CC)CC.[I-].[I-].[I-] [Gallamine Triethiodide]
Result: 118

Task: Which cell viability is reported for this compound? "CC(=O)OCC(=O)[C@@]12N=C(C)O[C@@H]1C[C@H]1[C@@H]3CCC4=CC(=O)C=C[C@]4(C)[C@H]3[C@@H](O)C[C@@]12C"
Result: 141

Task: Which cell viability is reported for this compound? Nc1ncn(C2OC(CO)C(O)C2O)c(=O)n1 (centres undefined)
Result: 85

Task: Which cell viability is reported for this compound? CCC(C)C(=O)OC1CC(C)C=C2C=CC(C)C(CCC3CC(O)CC(=O)O3)C21 (centres undefined)
Result: 115

Task: Which cell viability is reported for this compound? "O=C(O)Cc1cc(I)c(Oc2ccc(O)c(I)c2)c(I)c1"
Result: 99

Task: Which cell viability is reported for this compound? CC(Cc1ccc(O)c(O)c1)(NN)C(=O)O (centres undefined)
Result: 122

Task: Which cell viability is reported for this compound? Cc1cccc(Nc2ccncc2S(=O)(=O)NC(=O)NC(C)C)c1 [Torsemide]
Result: 140

Task: Which cell viability is reported for this compound? CCCC(NC(C)C(=O)N1C(C(=O)O)CC2CCCCC21)C(=O)OCC (centres undefined)
Result: 111

Task: Which cell viability is reported for this compound? "CCC(=C(CC)c1ccc(O)cc1)c1ccc(O)cc1"
Result: 95.7

Task: Which cell viability is reported for this compound? C=C1CCN(C(C)C(O)(Cn2cncn2)c2ccc(F)cc2F)CC1 (centres undefined)
Result: 148

Task: Which cell viability is reported for this compound? CN(C)CCCN1c2ccccc2CCc2ccccc21.Cl [Imipramine (hydrochloride)]
Result: 88.1

Task: Which cell viability is reported for this compound? "Cc1c(C(=O)NN2CCCCC2)nn(-c2ccc(Cl)cc2Cl)c1-c1ccc(Cl)cc1"
Result: 114

Task: Which cell viability is reported for this compound? "Cc1nc(Nc2ncc(C(=O)Nc3c(C)cccc3Cl)s2)cc(N2CCN(CCO)CC2)n1"
Result: 53.7

Task: Which cell viability is reported for this compound? CCCCCOC(=O)Nc1nc(=O)n(C2OC(C)C(O)C2O)cc1F (centres undefined)
Result: 114

Task: Which cell viability is reported for this compound? "COc1ccc(O)cc1"
Result: 108

Task: Which cell viability is reported for this compound? "COc1ccc(C(=O)c2ccccc2)c(O)c1"
Result: 141

Task: Which cell viability is reported for this compound? Cl.O=C1OC(CN2CCOCC2)CN1N=Cc1ccc([N+](=O)[O-])o1 (centres undefined) [Furaltadone HCl]
Result: 153

Task: Which cell viability is reported for this compound? COc1cc(C(=O)O)ccc1NC(=O)C1NC(CC(C)(C)C)C(C#N)(c2ccc(Cl)cc2F)C1c1cccc(Cl)c1F (centres undefined)
Result: 143

Data origin: the supplement of paper PMC6992640
